Test system: ORFeus-Mm (synthetic mouse L1) retrotransposition
Experiment: Cell-based L1 retrotransposition assay, ORFeus-Mm
Conditions: 50 μM, control = 1.0, normalized to cell viability
Description: The cell-based retrotransposition assay was conducted as described. HeLa cells (a gift from Dr. John Moran, University of Michigan) were seeded in 6-well dishes in DMEM (2×10^5 cells/well). […] Three days after puromycin selection, dead cells were removed and puromycin resistant cells were trypsinized and counted with a hemocytometer. […] The number of G418 resistant colonies was counted to calculate retrotransposition frequency. […]
outcome-measure: Relative retrotransposition efficiency
The response must contain the number and no unit.

Consider Cc1cn([C@H]2C[C@H](N=[N+]=[N-])[C@@H](CO)O2)c(=O)[nH]c1=O . Its measured Relative retrotransposition efficiency is 0.16

Consider Nc1nc(NC2CC2)c2ncn(C3C=C[C@H](CO)C3)c2n1 (stereo partly shown) . Its measured Relative retrotransposition efficiency is 0.15

Consider Cc1cn([C@H]2C=C[C@@H](CO)O2)c(=O)[nH]c1=O [d4T, 2'-3'-didehydro-2'-3'-dideoxythymidine] . Its measured Relative retrotransposition efficiency is 0.01

Consider CC(C)Nc1cccnc1N1CCN(C(=O)c2cc3cc(NS(C)(=O)=O)ccc3[nH]2)CC1 . Its measured Relative retrotransposition efficiency is 0.02

Consider Nc1nc(=O)n(C2CSC(CO)O2)cc1F (stereo not shown) . Its measured Relative retrotransposition efficiency is 0.26

* * *

Can you tell me activity at 5 µM for the items I'm about to list?
System: ORFeus-Hs (synthetic human L1) retrotransposition in HeLa cells
Assay: Cell-based L1 retrotransposition assay, ORFeus-Hs
Details: Homo sapiens, HeLa, 5 μM, control = 1.0, normalized to cell viability, read-out: Relative retrotransposition efficiency
Answers without a unit are incomplete; give the number and then its unit.

Here Nc1ccn([C@H]2CS[C@@H](CO)O2)c(=O)n1 was tested on ORFeus-Hs (synthetic human L1) retrotransposition in HeLa cells, and its activity at 5 µM came to 8%

Here Cc1ccnc2c1NC(=O)c1cccnc1N2C1CC1 was tested on ORFeus-Hs (synthetic human L1) retrotransposition in HeLa cells, and its activity at 5 µM came to 108%

Here Cc1cn([C@H]2C[C@H](N=[N+]=[N-])[C@@H](CO)O2)c(=O)[nH]c1=O was tested on ORFeus-Hs (synthetic human L1) retrotransposition in HeLa cells, and its activity at 5 µM came to 62%

Here Nc1nc(=O)n(C2CSC(CO)O2)cc1F (stereo not shown) was tested on ORFeus-Hs (synthetic human L1) retrotransposition in HeLa cells, and its activity at 5 µM came to 25%

Here Nc1nc(NC2CC2)c2ncn(C3C=C[C@H](CO)C3)c2n1 (stereo partly shown) was tested on ORFeus-Hs (synthetic human L1) retrotransposition in HeLa cells, and its activity at 5 µM came to 74%

Here O=C1Nc2ccc(Cl)cc2[C@@](C#CC2CC2)(C(F)(F)F)O1 was tested on ORFeus-Hs (synthetic human L1) retrotransposition in HeLa cells, and its activity at 5 µM came to 28%

Here CC(C)Nc1cccnc1N1CCN(C(=O)c2cc3cc(NS(C)(=O)=O)ccc3[nH]2)CC1 was tested on ORFeus-Hs (synthetic human L1) retrotransposition in HeLa cells, and its activity at 5 µM came to 63%

* * *

System: ORFeus-Mm (synthetic mouse L1) retrotransposition
Assay: Cell-based L1 retrotransposition assay, ORFeus-Mm
Settings: 5 μM, control = 1.0, normalized to cell viability
Can you tell me Relative retrotransposition efficiency for the items I'm about to list?
The response must contain the number and no unit.

Consider Nc1nc(=O)n(C2CSC(CO)O2)cc1F (stereo not shown) [FTC] . Its measured Relative retrotransposition efficiency is 0.34

Consider Nc1nc(NC2CC2)c2ncn(C3C=C[C@H](CO)C3)c2n1 (stereo partly shown) [ABC] . Its measured Relative retrotransposition efficiency is 0.80

Consider Cc1cn([C@H]2C[C@H](N=[N+]=[N-])[C@@H](CO)O2)c(=O)[nH]c1=O [AZT, azidothymidine] . Its measured Relative retrotransposition efficiency is 0.75

Consider Cc1cn([C@H]2C=C[C@@H](CO)O2)c(=O)[nH]c1=O [d4T, 2'-3'-didehydro-2'-3'-dideoxythymidine] . Its measured Relative retrotransposition efficiency is 0.28

Consider CC(C)Nc1cccnc1N1CCN(C(=O)c2cc3cc(NS(C)(=O)=O)ccc3[nH]2)CC1 [DLV, delavirdine] . Its measured Relative retrotransposition efficiency is 0.60
